- Tested on: LK-2
- experiment.notes: relative viability (nuclei count vs DMSO), 5 days (fraction); higher = more cells survive
- condition.details: first compound 0.253 µM
recorded.metric: relative viability

Please indicate relative viability recorded for O=c1[nH]c2ccccc2n1C1CCN(CCCC(c2ccc(F)cc2)c2ccc(F)cc2)CC1 [Pimozide] + O=C(CCCCCCC(=O)Nc1ccccc1)NO [Vorinostat] (partner 1 µM)
0.342

Please indicate relative viability recorded for O=c1[nH]c2ccccc2n1C1CCN(CCCC(c2ccc(F)cc2)c2ccc(F)cc2)CC1 [Pimozide] + C[C@]1(O)C[C@@H](c2nc(-c3ccc4ccc(-c5ccccc5)nc4c3)c3c(N)nccn32)C1 [Linsitinib] (partner 1 µM)
0.543
